The origin of these recorded values is PubChem BioAssay.

Assay: human hepatoma cell viability loss – ATP luminescence, cytotoxicity control for P. falciparum antimalarial project, primary screen (AID 2303)
Settings: HepG2 viability, 24-48 h, at 10 µM
The source made the active and inactive calls.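 The calls were made as follows: active = inhibition above 50%; inactive = the rest.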
Response enum: yes = active, no = inactive

Called result for `c1ccc2[nH]c(-c3ccc(-c4ccc(CN5CCN(c6ccncc6)CC5)cc4)cc3)nc2c1`
no

Called result for `O=C(Nc1cccc(F)c1)N(Cc1ccc(-c2ccc(CN3CCNCC3)cc2)cc1)C1CCN(Cc2ccccc2)CC1`
no

Called result for `Cc1cc(NN=Cc2ccc(Cl)cc2)c2cc(F)ccc2n1`
no

Called result for `NC(N)=NCC=C(c1ccccc1)c1ccccc1`
no

Called result for CC(C)(C)c1ccc(CN2CCC(CNC(=O)c3cc(-c4ccccc4F)cs3)C2)cc1 (stereo not drawn)
no

Called result for CC1(C)[C@H]2CC[C@]1(C)CN(CC(O)Cn1c3ccccc3c3cc(I)ccc31)C2 (stereo partly drawn)
no

Called result for `CN(C)CCCOc1ccccc1CN1CC[C@H](NC(=O)c2ccc(Cl)c(Cl)c2)C1`
no

Called result for `CN1CCN(c2ccnc3ccc(NC(=O)Cc4ccc(Br)c5ccccc45)cc23)CC1`
no

Called result for `CCCNCc1ccc(-c2ccc(CN(CCOC)C(=O)/C=C/c3ccccc3C)cc2)nc1`
no

Called result for CCCCCC(C)N=C(Nc1ccc(C#N)cc1O)Nc1cccc(Cl)c1Cl (stereo not drawn)
no

Called result for `CCc1ccc(NC(=O)c2ccc(CN3CCCN(Cc4cccc(C)c4)CC3)cc2)cc1`
yes

Called result for Cn1c(=N)n(CC(=O)N2CCc3ccc(Cl)cc3C2Cc2ccc(Cl)c(Cl)c2)c2ccccc21 (stereo not drawn)
yes

Called result for `CN1CCN(CCCN(Cc2cccc(-c3ccc(CNCCc4ccccc4)cc3)c2)C(=O)Nc2ccccc2)CC1`
yes

Called result for `c1cc(CN2CCN(CCN3CCOCC3)CC2)cc(-c2ccc(-c3nc4ccccc4[nH]3)cc2)c1`
no

Called result for CC1CCCCN1CCCNc1nc(NCc2ccccc2)c2ccccc2n1 (stereo not drawn)
no

Called result for `CN(C)c1ccc(-c2ccc(C(=O)NC3CCN(Cc4ccc(F)cc4)CC3)s2)cc1`
no

Called result for `COc1ccc(NC(=O)/C=C/c2ccccc2Cl)cc1OCCN1CCC(N2CCN(C)CC2)CC1`
no

Called result for `CCC[C@@H]([C@@H](CC1CCCCC1)C(=O)N[C@H](C(=O)Nc1nccs1)C(C)(C)SCCNC(=O)OCc1ccccn1)N(O)C=O`
no

Called result for `COc1cc2nc(NCc3ccccc3)nc(NCc3ccccc3)c2cc1OC`
yes

Called result for `Cc1noc(C)c1-c1cccc(CNCc2cccc(-c3ccc(-c4nc5ccccc5[nH]4)cc3)c2)c1`
no

Called result for `Oc1cccc2ccc(Nc3ccccn3)nc12`
yes

Called result for CCC(C(=O)Nc1cc(=O)[nH]c2nc(-c3ccco3)nn12)c1ccccc1 (stereo not drawn)
no

Called result for COc1ccccc1C1CC(c2ccccc2)=NN1C(=O)c1ccco1 (stereo not drawn)
no

Called result for `Fc1ccc2nc(-c3cccc(-c4ccc(CN5CCCCC5)cc4)c3)[nH]c2c1`
no

Called result for COc1ccc2nccc(N3CCC(SCCNCc4ccc5c(n4)NC(=O)CO5)C3)c2n1 (stereo not drawn)
no

Called result for `Cc1nn(-c2ccccc2)nc1C(=O)NC1CCN(CCNC(=O)c2ccc(Cl)c(Cl)c2)CC1`
no

Called result for `Cc1cccc2[nH]c(-c3ccc(-c4ccc(CN5CCN(CCN6CCOCC6)CC5)cc4)cc3)nc12`
no

Called result for `Cc1cc(N2CC=CCC2)nc(/N=C(\N)Nc2ccc(Cl)cc2)n1`
no

Called result for `CN1CCCc2ccc(NC(=O)c3ccc(-c4cc(C(F)(F)F)nn4C)s3)cc2C1`
no

Called result for CCCCCCNC(=O)C1Cc2c([nH]c3ccc(C)cc23)C2(CCN(CCc3ccccc3)CC2)N1 (stereo not drawn)
no

Called result for `C[C@@H](Oc1cc(-n2cnc3ccc(OCC4CCN(S(C)(=O)=O)CC4)cc32)sc1C(N)=O)c1ccccc1C(F)(F)F`
no

Called result for `O=C1CCCN1CCCNCc1ccc(-c2ccc(-c3nc4ccc(F)cc4[nH]3)cc2)cc1`
no

Called result for CCc1ccc(CN2CCC(NC(=O)c3cc(-c4ccc(N(C)C)cc4)cs3)C2)cc1 (stereo not drawn)
no

Called result for COC(=O)c1ccc2c(c1)nc(Nc1cccc(F)c1)n2CC(O)c1ccccn1 (stereo not drawn)
no

Called result for C[C@@H](COc1ccccc1)NCC(O)c1ccc([N+](=O)[O-])c(OCc2ccccc2)c1 (stereo partly drawn)
no

Called result for `COc1ccc(C(=O)N2CCC3(CC2)C(=O)N(CC(=O)NC2CCCCC2)CN3c2ccccc2)c(OC)c1`
no

Called result for `CN(C(=O)c1nn(-c2ccccn2)c2nccc(-c3cccs3)c12)C1CCCCC1`
no

Called result for `Cc1cc(C2CCN(CCCCNC(=O)c3ccc(NC(=O)c4ccc(Cl)cc4)cc3)CC2)c(C)cc1OCc1ccccn1`
no
